# assay_system: DDR2 extracellular domain (ECD) (Homo sapiens, UniProt Q16832)
# Sequence (Q16832 22-399 limits assumed): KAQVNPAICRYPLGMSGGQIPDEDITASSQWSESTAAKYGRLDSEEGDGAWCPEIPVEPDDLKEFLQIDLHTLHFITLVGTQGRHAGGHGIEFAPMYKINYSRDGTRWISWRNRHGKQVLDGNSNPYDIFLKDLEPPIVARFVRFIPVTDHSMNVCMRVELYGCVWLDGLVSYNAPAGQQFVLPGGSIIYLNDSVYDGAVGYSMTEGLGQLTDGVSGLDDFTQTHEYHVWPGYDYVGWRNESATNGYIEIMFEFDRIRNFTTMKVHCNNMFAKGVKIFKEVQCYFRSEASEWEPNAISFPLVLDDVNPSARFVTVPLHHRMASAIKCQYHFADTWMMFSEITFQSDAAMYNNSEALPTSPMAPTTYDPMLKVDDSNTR
# protocol_notes: in vitro ELISA-type assay, binding of soluble DDR2 ECD to immobilized collagen triple helical peptide
# test_conditions: values in nM; read-out: IC50, Inhibition of DDR2-collagen binding activity
label 1 if IC50 is below 400 nM. label 0 if not; exact matches included in label 0.

# smi, group
measured = [
    ("O=c1ccc2nc3ccc(OS(=O)(=O)c4ccccc4)cc3oc-2c1", "label 0"),
    ("O=c1ccc2nc3ccc(OCc4ccncc4)cc3oc-2c1", "label 1"),
    ("O=c1ccc2nc3ccc(OCc4ccccc4)cc3oc-2c1", "label 0"),
]

Exam item: Report whether reported IC50 is lower than 400 nM (strictly) for O=c1ccc2nc3ccc(OCc4ccc(OC(F)F)cc4)cc3oc-2c1
Marked response: label 1
